biological target: d-enCas12a (Acidaminococcus sp., UniProt U2UMQ6 1-1307, E174R;S542R;K548R;D908A;E993A;D1235A); assay: Spec-seq (native PAGE EMSA with sequencing of bound and unbound); 25 mM Tris-HCl pH 7.4, 150 mM KCl, 5 mM MgCl2, 10% glycerol, 1 mM DTT, 40 ng/uL salmon sperm DNA; 400 nM Cas12a, 480 nM crRNA, 50 nM library, 37 C 1 h; native PAGE at room temperature; high values mean tight binding; settings: protein: recombinant;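 also: relative affinity from the bound to unbound sequence frequency ratio in Spec-seq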
observed.property: binding signal
Form field: result (number plus unit)

Batch lookup, binding signal per entry.
1. TTGG (dsDNA) DNA 1: GCTATCTAGTGCTCAGTACGCACTGTTGGAGGAAACTTCTGGCAGGACCAGGTCATGAGATCGGAAGAGCACACGTCTGAACTCCAGTCA DNA 2: TGACTGGAGTTCAGACGTGTGCTCTTCCGATCTCATGACCTGGTCCTGCCAGAAGTTTCCTCCAACAGTGCGTACTGAGCACTAGATAGC RNA: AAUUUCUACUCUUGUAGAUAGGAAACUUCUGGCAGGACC
2. GAAA (dsDNA) DNA 1: GCTATCTAGTGCTCAGTACGCACTGGAAAAGGAAACTTCTGGCAGGACCAGGTCATGAGATCGGAAGAGCACACGTCTGAACTCCAGTCA DNA 2: TGACTGGAGTTCAGACGTGTGCTCTTCCGATCTCATGACCTGGTCCTGCCAGAAGTTTCCTTTTCCAGTGCGTACTGAGCACTAGATAGC RNA: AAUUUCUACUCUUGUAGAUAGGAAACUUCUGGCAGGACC
3. GCTG (dsDNA) DNA 1: GCTATCTAGTGCTCAGTACGCACTGGCTGAGGAAACTTCTGGCAGGACCAGGTCATGAGATCGGAAGAGCACACGTCTGAACTCCAGTCA DNA 2: TGACTGGAGTTCAGACGTGTGCTCTTCCGATCTCATGACCTGGTCCTGCCAGAAGTTTCCTCAGCCAGTGCGTACTGAGCACTAGATAGC RNA: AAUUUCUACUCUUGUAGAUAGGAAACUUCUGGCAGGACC
4. CTTT (dsDNA) DNA 1: GCTATCTAGTGCTCAGTACGCACTGCTTTAGGAAACTTCTGGCAGGACCAGGTCATGAGATCGGAAGAGCACACGTCTGAACTCCAGTCA DNA 2: TGACTGGAGTTCAGACGTGTGCTCTTCCGATCTCATGACCTGGTCCTGCCAGAAGTTTCCTAAAGCAGTGCGTACTGAGCACTAGATAGC RNA: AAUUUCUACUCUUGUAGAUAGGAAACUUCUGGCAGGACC
5. AACT (dsDNA) DNA 1: GCTATCTAGTGCTCAGTACGCACTGAACTAGGAAACTTCTGGCAGGACCAGGTCATGAGATCGGAAGAGCACACGTCTGAACTCCAGTCA DNA 2: TGACTGGAGTTCAGACGTGTGCTCTTCCGATCTCATGACCTGGTCCTGCCAGAAGTTTCCTAGTTCAGTGCGTACTGAGCACTAGATAGC RNA: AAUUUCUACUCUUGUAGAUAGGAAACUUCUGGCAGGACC

1: -5.22 lnKA; 2: -5.87 lnKA; 3: -5.74 lnKA; 4: -2.97 lnKA; 5: -4.69 lnKA
